Measured Kd values are reported for all entries that follow.
# target.or.system: His-DciA R106A L119S (RL) (UniProt A0A0H3C5R2 1-179, R106A;L119S)
# Sequence (A0A0H3C5R2 entry or part of it R106A;L119S | R106A L119S R106A L119S): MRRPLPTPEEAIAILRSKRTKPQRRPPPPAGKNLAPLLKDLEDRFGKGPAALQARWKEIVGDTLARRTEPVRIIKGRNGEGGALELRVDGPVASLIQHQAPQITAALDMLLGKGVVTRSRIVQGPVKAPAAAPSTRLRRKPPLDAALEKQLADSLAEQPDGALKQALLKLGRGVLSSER
# run.description: EMSA; 150 mM K-glutamate; EMSA: 20 mM Tris-HCl pH 7.5, 10 mM Mg acetate, 50 or 150 mM K-glutamate, 0.1 mg/ml BSA, 10% glycerol, 2 mM ATP, 12.5 nM DNA, 5 min on ice; M13 pull-down: Tris pH 7.5, 10 mM Mg acetate, 50 mM K-glutamate, 0.1 mM ATP, 0.1 mg/ml BSA, 30 C
# applied.conditions: protein: recombinant; tags: N-terminal His6; label: 5'-FAM
The reply should contain only the number, in nM.

binder: TTTTTTTTTTTTTTTTTTTTTTTTTTTTTTTTTTT (ssDNA) [35-mer oligo 2201]
Kd / nM: 665

Attention now shifts to the item below.
Ask: Fill blank: measured Kd of the binder 80-mer oligo 1790 (ssDNA) DNA: TCCTTGTTATCCACAGGGCAGTTTTTTTTTTTTTTTTTTTTTTTTTTTTTTTTTTTTTTTTGTGCGATATAGTTCTCCGA is ____.
Result: 115
